The variants listed here are annotated with their abundance fitness.
B1: Myocardin, residues 363 to 406; numbered along this chain, Q8IZQ8 (parent)
chain: KPGPLPPNLDDLKVSELRQQLRIRGLPVSGTKTALMDRLRPFQD

Variants of: B1
Assay: abundance fitness (aPCA) (normalised: wild type 0, dead -1); higher = more abundant; growth selection in yeast, the domain comes from the species named
Details: Homo sapiens
metric.name: abundance fitness

var	measured.value
P27H	-0.149
F42M	-0.242
L21K	-0.296
T33N	-0.001
E16Y	-0.323
L12F	0.053
P41I	-0.001
S29V	-0.097
Q19G	-0.368
P27Y	-0.891
T33Q	-0.385
Q19C	-0.464
R40E	-0.152
P41V	-0.11
F42R	-0.12
D11C	-0.272
L26I	-0.431
L35C	-0.184
L17R	-0.606
E16L	-0.826
M36R	-0.216
I23P	-0.605
P41G	-0.084
R18E	-0.177
L12V	-0.497
L39H	-0.611
T31W	-0.994
P2V	0.39
G30Y	-0.951
G30D	-0.504
Q43F	0.028
D44K	0.195

// data source = the Human Domainome abundance scans (Beltran et al. 2025)
